Measured values drawn from patent US9394295B2 for this set.

Test system: S. aureus
assay_details: Antibacterial susceptibility testing: IC90 determination with 10% human serum (STA + 10% HS)
Type: cell-based
run_parameters: Staphylococcus aureus; S. aureus with human serum at final concentration of 10%; read-out: STA + 10% HS (361.169) IC90
measurement_type: IC90 (µg/mL)

COc1ccc(C2=CCN(C(=O)/C=C/c3cnc4c(c3)CCC(=O)N4)CCC2)cc1 [Co. No. 25] = 5.83

I. Cc1ccccc1C1=CCN(C(=O)/C=C/c2cnc3c(c2)CCC(=O)N3)CCC1 [Co. No. 7]
II. O=C1CCc2cc(/C=C/C(=O)N3CCC=C(c4ccccc4Cl)CC3)cnc2N1 [Co. No. 21]
III. O=C1CCc2cc(/C=C/C(=O)N3CC=C(c4ccccc4F)CCC3)cnc2N1 [Co. No. 22]
**Query** // ascending sort on recorded IC90 Order the labels as requested and list them.
**Result** II, III, I
